- test system: SARS-COV-2 RBD extracellular domain expressed with a C-terminal mouse IgG2a Fc (SARS-CoV-2)
- measurement protocol: Biacore SPR, mAb captured on anti-hFc, 37 C
property label: log10 of Kd (log10 of the value in nM)

- binder: "mAb14234 (antibody, V domains shown) VH: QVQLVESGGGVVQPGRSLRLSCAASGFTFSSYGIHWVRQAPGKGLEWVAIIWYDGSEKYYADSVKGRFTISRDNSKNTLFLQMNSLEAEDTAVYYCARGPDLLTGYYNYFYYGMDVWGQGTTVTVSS VL: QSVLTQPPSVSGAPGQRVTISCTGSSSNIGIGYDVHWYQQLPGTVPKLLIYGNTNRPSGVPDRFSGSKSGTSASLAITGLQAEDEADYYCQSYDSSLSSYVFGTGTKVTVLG"
  log10 of Kd: -0.39
- binder: "mAb14256 (antibody, V domains shown) VH: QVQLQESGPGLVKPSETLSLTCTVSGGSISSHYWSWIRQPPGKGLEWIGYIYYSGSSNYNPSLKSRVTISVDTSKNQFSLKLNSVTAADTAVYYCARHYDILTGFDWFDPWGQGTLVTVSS VL: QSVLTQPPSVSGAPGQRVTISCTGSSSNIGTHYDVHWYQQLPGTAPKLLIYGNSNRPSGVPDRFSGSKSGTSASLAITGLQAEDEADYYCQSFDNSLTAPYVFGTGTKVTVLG"
  log10 of Kd: -0.57
- binder: "mAb14247 (antibody, V domains shown) VH: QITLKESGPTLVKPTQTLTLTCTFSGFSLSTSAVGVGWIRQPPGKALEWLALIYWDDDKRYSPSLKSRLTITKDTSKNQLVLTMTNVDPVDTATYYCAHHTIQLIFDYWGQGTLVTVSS VL: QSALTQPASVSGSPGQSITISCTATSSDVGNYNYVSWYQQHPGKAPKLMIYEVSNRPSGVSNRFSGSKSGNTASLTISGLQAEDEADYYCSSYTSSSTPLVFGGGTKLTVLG"
  log10 of Kd: -0.90
- binder: "mAb14230 (antibody, V domains shown) VH: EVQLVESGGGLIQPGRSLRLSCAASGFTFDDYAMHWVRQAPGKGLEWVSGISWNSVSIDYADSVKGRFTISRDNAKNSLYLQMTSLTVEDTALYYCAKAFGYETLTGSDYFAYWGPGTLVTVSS VL: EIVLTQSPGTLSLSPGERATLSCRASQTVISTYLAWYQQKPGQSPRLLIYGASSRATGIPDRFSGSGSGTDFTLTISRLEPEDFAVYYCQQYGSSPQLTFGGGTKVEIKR"
  log10 of Kd: -0.57
- binder: "mAb14286 (antibody, V domains shown) VH: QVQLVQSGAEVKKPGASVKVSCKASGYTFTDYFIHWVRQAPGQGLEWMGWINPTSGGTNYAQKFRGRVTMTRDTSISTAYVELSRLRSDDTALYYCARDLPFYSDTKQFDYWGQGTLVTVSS VL: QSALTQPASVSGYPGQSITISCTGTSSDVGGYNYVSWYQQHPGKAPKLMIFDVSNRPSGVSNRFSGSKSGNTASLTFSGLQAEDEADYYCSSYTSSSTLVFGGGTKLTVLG"
  log10 of Kd: -0.74
- binder: "mAb14289 (antibody, V domains shown) VH: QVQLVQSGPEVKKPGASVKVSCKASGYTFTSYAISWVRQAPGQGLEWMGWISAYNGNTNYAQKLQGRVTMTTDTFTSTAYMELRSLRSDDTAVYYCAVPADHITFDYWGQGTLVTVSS VL: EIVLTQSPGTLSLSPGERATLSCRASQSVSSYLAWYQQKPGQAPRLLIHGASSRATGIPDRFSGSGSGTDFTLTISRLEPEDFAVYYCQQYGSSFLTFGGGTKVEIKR"
  log10 of Kd: -1.04
- binder: "mAb14282 (antibody, V domains shown) VH: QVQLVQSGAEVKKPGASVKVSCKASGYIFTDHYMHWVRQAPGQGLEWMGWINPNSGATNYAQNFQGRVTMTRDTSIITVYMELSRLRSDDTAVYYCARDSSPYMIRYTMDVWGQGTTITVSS VL: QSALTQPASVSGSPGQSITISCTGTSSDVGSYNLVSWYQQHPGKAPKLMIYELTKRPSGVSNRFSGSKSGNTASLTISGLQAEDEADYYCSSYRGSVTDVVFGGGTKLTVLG"
  log10 of Kd: -0.61
- binder: "mAb15150 (antibody, V domains shown) VH: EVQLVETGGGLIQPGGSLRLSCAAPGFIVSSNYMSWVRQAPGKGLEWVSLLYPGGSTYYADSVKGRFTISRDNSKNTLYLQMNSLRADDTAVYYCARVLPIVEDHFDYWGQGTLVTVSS VL: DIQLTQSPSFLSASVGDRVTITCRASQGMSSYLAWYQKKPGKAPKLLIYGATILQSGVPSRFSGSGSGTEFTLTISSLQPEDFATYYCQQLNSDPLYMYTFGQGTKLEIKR"
  log10 of Kd: -1.53
